Numbers sourced from PubChem BioAssay.

Readings of Her2 level for the listed molecules
Target: Receptor tyrosine-protein kinase erbB-2 (Homo sapiens)
Test: reducers of endogenous Her2 protein level, primary screen, SKBR3 breast tumor cells, AlphaScreen, ATP viability (AID 461);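 as to Her2 level: lower value means less Her2 protein in the cells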;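 as to viability: percent of carrier control wells set as 100% viability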
Conditions: 18-24 h, at 10 µM, stronger effect = lower value
ENDPOINT LABEL: Her2 level (%)

- MOLECULE: "CC(C)(C)c1ccccc1NC(=O)c1cccnc1"
  EXPERIMENTAL TARGET: "Receptor tyrosine-protein kinase erbB-2 (Homo sapiens)"
  UNIT NAME: "%"
  VALUE MEASURED: 93.5
- MOLECULE: "CCC(=O)N1CCCc2cc(S(=O)(=O)N3CCCc4ccccc43)ccc21"
  EXPERIMENTAL TARGET: "Receptor tyrosine-protein kinase erbB-2 (Homo sapiens)"
  UNIT NAME: "%"
  VALUE MEASURED: 76.5
- MOLECULE: "O=C(CCn1c(=O)sc2ccccc21)Nc1cccnc1"
  EXPERIMENTAL TARGET: "Receptor tyrosine-protein kinase erbB-2 (Homo sapiens)"
  UNIT NAME: "%"
  VALUE MEASURED: 92
- MOLECULE: "N#CC1=C(N)Oc2n[nH]c(-c3ccncc3)c2C1c1ccsc1 (stereo unspecified)"
  EXPERIMENTAL TARGET: "Receptor tyrosine-protein kinase erbB-2 (Homo sapiens)"
  UNIT NAME: "%"
  VALUE MEASURED: 95
- MOLECULE: "COc1ccc(-c2cc(O)cc(O)c2)cc1"
  EXPERIMENTAL TARGET: "Receptor tyrosine-protein kinase erbB-2 (Homo sapiens)"
  UNIT NAME: "%"
  VALUE MEASURED: 89.5
- MOLECULE: "CC(=O)N(c1ccc(N(C(C)=O)S(=O)(=O)c2cccs2)cc1)S(=O)(=O)c1cccs1"
  EXPERIMENTAL TARGET: "Receptor tyrosine-protein kinase erbB-2 (Homo sapiens)"
  UNIT NAME: "%"
  VALUE MEASURED: 104

----------
Experiment: reducers of endogenous Her2 protein level, primary screen, SKBR3 breast tumor cells, AlphaScreen, ATP viability (AID 461);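 as to viability: percent of carrier control wells set as 100% viability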
Details: 18-24 h, measured here: SKBR3 viability, ATP luminescence, at 10 µM

- COMPOUND: "CCC(C(=O)O)n1c(C(F)(F)F)nc2ccccc21 (stereo unspecified)"
  viability [%]: 105
- COMPOUND: "O=C(NCC1CCCO1)C1CCN(c2ccc(S(=O)(=O)N3CCCC3)cc2)CC1 (stereo unspecified)"
  viability [%]: 115
- COMPOUND: "COc1ccc(C)cc1NC(=O)CN(Cc1nnc(-c2ccc(Cl)cc2)o1)C1CCCC1"
  viability [%]: 89
- COMPOUND: "CN(C(=O)c1ccno1)c1nnc(-c2cnccn2)s1"
  viability [%]: 107
- COMPOUND: "Cc1ccc(NC(=O)C2CC=CCC2C(=O)N2CCCCC2)cc1 (stereo unspecified)"
  viability [%]: 71
- COMPOUND: "O=S(=O)(c1ccc(-c2csc(-c3cccnc3)n2)cc1)N1CCCCC1"
  viability [%]: 106
- COMPOUND: "CCOC(=O)N1CCN(c2nc(-c3ccc(Cl)cc3)cs2)CC1"
  viability [%]: 79.5
- COMPOUND: "CCOC(=O)c1sc(NC(=O)CSc2nnc3c4ccccc4n(CC)c3n2)nc1C"
  viability [%]: 83.5
- COMPOUND: "[O-][n+]1c2ccc3nonc3c2nn1-c1ccccc1Cl"
  viability [%]: 136
- COMPOUND: "O=C(Nc1ccc2snnc2c1)N1CCSCC1"
  viability [%]: 108
- COMPOUND: "O=C(Cn1c(=O)[nH]n(-c2ccccc2)c1=O)N1CCCc2ccccc21"
  viability [%]: 116
